test system: COLO 205 colorectal tumor cells; assay: Tumor cell viability inhibition assay (CellTiter-Glo 2.0, 72 hours); format: cell-based; details: Homo sapiens, COLO 205, 72 h, COLO 205 cell viability
Recorded endpoint: IC50

The molecule listed as Cc1cc(-c2cc(Cl)ccc2OCCn2c(C)nc3c(c2=O)C[C@H](N2CCC[C@]4(C2)CC4(F)F)CC3)c2scc(C(=O)O)c2n1 (single isomer, unassigned) [Compound 137] shows IC50 equal to < 5 µM

The molecule listed as Cc1cc(-c2cc(Cl)ccc2OCCn2c(C)nc3c(c2=O)CC(N(C)[C@H]2C[C@](C)(O)C2)CC3)c2scc(C(=O)O)c2n1 (stereo partly drawn) [Compound 193] shows IC50 equal to > 20 µM

The molecule listed as Cc1nc2c(c(=O)n1CC#Cc1ccc(Cl)cc1-c1ccnc3c(C(=O)O)csc13)C[C@H](N1CC[C@@H](F)C1)CC2 (single isomer, unassigned) [Compound 326] shows IC50 equal to < 5 µM

The molecule listed as Cc1cc(-c2cc(Cl)ccc2OCCn2c(C)nc3c(c2=O)C[C@@H](N2CCC(Oc4ccc(F)cc4F)CC2)CC3)c2scc(C(=O)O)c2n1 (single isomer, unassigned) [Compound 596] shows IC50 equal to < 5 µM

The molecule listed as Cc1cc(-c2cc(Cl)ccc2OCCn2c(C)nc3c(c2=O)CC(N(C)C2(C4CCC4)CC2)CC3)c2scc(C(=O)O)c2n1 (single isomer, unassigned) [Compound 242] shows IC50 equal to < 5 µM

The molecule listed as Cc1cc(-c2cc(Cl)ccc2OCCn2c(C)nc3c(c2=O)CC(N(C)Cc2cnccn2)CC3)c2scc(C(=O)O)c2n1 (stereo not drawn) [Compound 199] shows IC50 equal to < 5 µM

The molecule listed as Cc1cc(-c2cc(Cl)ccc2OCCn2c(C)nc3c(c2=O)CC(N(C)C)CC3)c2ccc(C(=O)O)n2n1 (stereo not drawn) [Compound 36] shows IC50 equal to > 20 µM

The molecule listed as COC(=O)c1csc2c(-c3cc(Cl)ccc3OCCn3c(C)nc4c(c3=O)CC(N(C)C3CC3)CC4)cc(C)nc12 (stereo not drawn) [Compound 358] shows IC50 equal to 5 to 20 µM

The molecule listed as Cc1cc(-c2cc(Cl)ccc2OCCn2c(C)nc3c(c2=O)CC(N2CC4(CCCN(CC(F)(F)F)C4)C2)CC3)c2scc(C(=O)O)c2n1 (single isomer, unassigned) [Compound 507] shows IC50 equal to < 5 µM

* * *

system: COLO 205 colorectal tumor cells; assay: Tumor cell viability inhibition assay (CellTiter-Glo 2.0, 72 hours); type: cell-based; conditions: Homo sapiens, COLO 205, 72 h, COLO 205 cell viability
pIC50: −log10 of the molar value.
So I've got a bunch of compounds here, and I need their pIC50 values.

Tested system COLO 205 colorectal tumor cells; pIC50 recorded for Cc1cc(-c2cc(Cl)ccc2OCCn2c(C)nc3c(c2=O)CC(N(C)C(=O)C2CN(CC(F)(F)F)C2)CC3)c2scc(C(=O)O)c2n1 (stereo not drawn) [Compound 72] was < 4.70

Tested system COLO 205 colorectal tumor cells; pIC50 recorded for Cc1cc(-c2cc(Cl)ccc2OCCn2c(C)nc3c(c2=O)C[C@H](N2CC[C@@H](F)C2)CC3)c2scc(C(=O)NS(C)(=O)=O)c2n1 (single isomer, unassigned) [Compound 313] was > 5.30

Tested system COLO 205 colorectal tumor cells; pIC50 recorded for Cc1cc(-c2cc(Cl)ccc2OCCn2c(C)nc3c(c2=O)C[C@@H](N2CCO[C@H](COC(F)(F)F)C2)CC3)c2scc(C(=O)O)c2n1 (single isomer, unassigned) [Compound 480] was > 5.30
